B1: HDV Ribozyme (parent)
chain: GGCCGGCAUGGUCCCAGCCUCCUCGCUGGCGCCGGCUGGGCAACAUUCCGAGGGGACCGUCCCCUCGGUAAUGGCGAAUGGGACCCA

# Variants of: B1
# TEST: self-cleavage, relative activity (ratio to wild type); higher = more cleavage; co-transcriptional
self-cleavage by entry:

# SEQUENCE_TEXT, self-cleavage
rows = [
    ("AGCCGGCAUGGUCCCAGCCUCCUCGCUGGCGCCGGCUGGGCAACAUUCCGAGGGGACCGUCCCCUCGGUAAUGGCGAAUGGGACACA", 0.0852),
    ("GGCCGGCAUGGUCCCAGCCUCCUCGCUGGCGCCGGCUGGGCAACAUUCCGAGGGUACCGUCCCCUCGGUCAUGGCGAAUGGGACCCA", 0.997),
]

Problem: Endpoint output: self-cleavage of GGCCGGCAUGGUCCCAGCCUCCUCGCUGGCGCCGCCUGGGCAACAUUCCGAGGGGACCGUCCCCUCGGUAAUGGCGAAUGGGAACCA . Value?
Solution: 0.271

Problem: Endpoint output: self-cleavage of GGCCGGCAUGGUCCCAGCCACCUCGCAGGCGCCGGCUGGGCAACAUUCCGAGGGGACCGUCCCCUCGGUAAUGGCGAAUGGGACCCA . Value?
Solution: 0.0723

Problem: Endpoint output: self-cleavage of GGCCGGCAUGGUCCCAGCCUCCUCGCUAGCGCCGGCUGGGCAACAUUCCGAGGGGACCGUCCCCUCGGUAAUGGCGAAUGGGGCCCA . Value?
Solution: 0.0946

Problem: Endpoint output: self-cleavage of GGCCGGCAUGGUCCCAGACUCCUCGCUGGCGCCGGCUGGGCAACAUUCCGAGGGGAUCGUCCCCUCGGUAAUGGCGAAUGGGACCCA . Value?
Solution: 0.086

Problem: Endpoint output: self-cleavage of GGGCGGCAUGGUCCCAGCCUCCUCGCUGGCGCCGGCUGGGCAACAUUCCGAGGGGACCGUCCCCUCGGUAAUGGCGAAUGGGACCUA . Value?
Solution: 0.885

Problem: Endpoint output: self-cleavage of GGCCGGCAUGGUCCCUGCCUCCUCGCUGGCGCCGGCUGGGCAACAUUCCGAGGGGACCGUCCCCUCGGUAAUGGCAAAUGGGACCCA . Value?
Solution: 0.939

Problem: Endpoint output: self-cleavage of GGCCGGCAUGGUCCCAGCCUCCUCGCUGGCGCCGGCCGGGCAACAUUCCGAGGGGACCGUCCCCUCGGUAAUGGCGAAUGGGACCCA . Value?
Solution: 1.03
